The reported numbers originate from patent US20150119373A1.

assay-explanation: Cyto-toxicity assay (MTT) in MT2 cells without virus
Type: cell-based
recorded-conditions: human
metric-name: viability at 100 nM (%)
Give bare numbers, in %.

Previously resolved entries follow.
molecule	viability at 100 nM, %
CC(C)(C)OC(=O)N1CCN(C(=O)[C@]23CC[C@@H](C4(C)CC4)[C@@H]2[C@H]2CC[C@@H]4[C@@]5(C)CC[C@H](OC(=O)CC(C)(C)C(=O)O)C(C)(C)[C@@H]5CC[C@@]4(C)[C@]2(C)CC3)CC1 [Example 37]	73
CC(C)(CC(=O)O[C@H]1CC[C@]2(C)[C@H]3CC[C@@H]4[C@H]5[C@H](C6(C)CC6)CC[C@]5(C(=O)N5CCC(C(=O)NCCN6CCOCC6)CC5)CC[C@@]4(C)[C@]3(C)CC[C@H]2C1(C)C)C(=O)O [Example 49]	85

Take each entry in turn and give its viability at 100 nM.
1. CCN1CCN(C(=O)[C@]23CC[C@@H](C4(C)CC4)[C@@H]2[C@H]2CC[C@@H]4[C@@]5(C)CC[C@H](OC(=O)[C@H]6C[C@@H](C(=O)O)C6(C)C)C(C)(C)[C@@H]5CC[C@@]4(C)[C@]2(C)CC3)CC1 [Example 13]
2. CC(C)(CC(=O)O[C@H]1CC[C@]2(C)[C@H]3CC[C@@H]4[C@H]5[C@H]([C@]6(C)CO6)CC[C@]5(C(=O)N[C@@H]5C[C@H](C(=O)N6CCCCC6)C5(C)C)CC[C@@]4(C)[C@]3(C)CC[C@H]2C1(C)C)C(=O)O [Example 14]
3. CC1([C@@H]2CC[C@]3(C(=O)N[C@@H]4C[C@H](C(=O)N5CCCCC5)C4(C)C)CC[C@]4(C)[C@H](CC[C@@H]5[C@@]6(C)CC[C@H](OC(=O)[C@H]7C[C@@H](C(=O)O)C7(C)C)C(C)(C)[C@@H]6CC[C@]54C)[C@@H]23)CC1 [Example 23]
4. COCCOCCN1CCN(C(=O)[C@]23CC[C@@H](C4(C)CC4)[C@@H]2[C@H]2CC[C@@H]4[C@@]5(C)CC[C@H](OC(=O)CC(C)(C)C(=O)O)C(C)(C)[C@@H]5CC[C@@]4(C)[C@]2(C)CC3)CC1 [Example 39]
5. [2H]C([2H])([2H])C(CC(=O)O[C@H]1CC[C@]2(C)[C@H]3CC[C@@H]4[C@H]5[C@H](C6(C)CC6)CC[C@]5(C(=O)N[C@@H]5C[C@H](C(=O)N6CCCCC6)C5(C)C)CC[C@@]4(C)[C@]3(C)CC[C@H]2C1(C)C)(C(=O)O)C([2H])([2H])[2H] [Example 22]
6. CC(C)(CC(=O)O)CC(=O)O[C@H]1CC[C@]2(C)[C@H]3CC[C@@H]4C5[C@H](C6(C)CC6)CC[C@]5(C(=O)N[C@H]5C[C@@H](C(=O)N6CCOCC6)C5(C)C)CC[C@@]4(C)[C@]3(C)CC[C@H]2C1(C)C (stereo partly drawn) [Example 52]
7. C=C(C)[C@@H]1CC[C@]2(C(=O)N[C@@H]3C[C@H](c4nnc(C)o4)C3(C)C)CC[C@]3(C)[C@H](CC[C@@H]4[C@@]5(C)CC[C@H](OC(=O)CC(C)(C)C(=O)O)C(C)(C)[C@@H]5CC[C@]43C)[C@@H]12 [Example 11]
8. CC(C)(CC(=O)O[C@H]1CC[C@]2(C)[C@H]3CC[C@@H]4[C@H]5[C@H](C6(C)CC6)CC[C@]5(C(=O)N5CCN(CCN6CCOCC6)CC5)CC[C@@]4(C)[C@]3(C)CC[C@H]2C1(C)C)C(=O)O [Example 31]

86
86
100
83
100
95
96
100

----------
What Tlast was measured for each of the following?
assay-explanation: Single dose oral pharmacokinetic study in mice
Assay type: in vivo
recorded-conditions: Oral PK @ 30 mg/ kg dose in mice (Table 6)
Numbers only, in h.

Answered examples (3):
compound	metric-name	reported-measurement
CC1([C@@H]2CC[C@]3(C(=O)N4CCOCC4)CC[C@]4(C)[C@H](CC[C@@H]5[C@@]6(C)CC[C@H](OC(=O)[C@H]7C[C@@H](C(=O)O)C7(C)C)C(C)(C)[C@@H]6CC[C@]54C)[C@@H]23)CC1 [Example 28]	Tlast	48
COCCOC1CCN(C(=O)[C@]23CC[C@@H](C4(C)CC4)[C@@H]2[C@H]2CC[C@@H]4[C@@]5(C)CC[C@H](OC(=O)[C@H]6C[C@@H](C(=O)O)C6(C)C)C(C)(C)[C@@H]5CC[C@@]4(C)[C@]2(C)CC3)CC1 [Example 42]	Tlast	48
C=C(C)[C@@H]1CC[C@]2(C(=O)N[C@@H]3C[C@H](c4nnc(C)o4)C3(C)C)CC[C@]3(C)[C@H](CC[C@@H]4[C@@]5(C)CC[C@H](OC(=O)[C@H]6C[C@@H](C(=O)O)C6(C)C)C(C)(C)[C@@H]5CC[C@]43C)[C@@H]12 [Example 21]	Tlast	24

Return the recorded Tlast value; entry: [2H]C([2H])([2H])C(CC(=O)O[C@H]1CC[C@]2(C)[C@H]3CC[C@@H]4[C@H]5[C@H](C(=C)C)CC[C@]5(C(=O)N[C@@H]5C[C@H](C(=O)N6CCCCC6)C5(C)C)CC[C@@]4(C)[C@]3(C)CC[C@H]2C1(C)C)(C(=O)O)C([2H])([2H])[2H] [Example 24]
24

----------
Test system: HIV-1 strain 92HT599
assay-explanation: Antiviral activity: p24 estimation in MT2 cells infected with HIV-1 strain 92HT599
Assay type: cell-based
recorded-conditions: Human immunodeficiency virus 1; 100 nM; MT2 cells, HIV-1 92HT599, ~96 hours, p24; read-out: Antiviral activity % inhibition 100 nM
What inhibition at 0.1 µM was measured for each of the following?
State the value with its unit after it.

query-smiles	inhibition at 0.1 µM
CC(C)(CC(=O)O[C@H]1CC[C@]2(C)[C@H]3CC[C@@H]4[C@H]5[C@H](C6(C)CC6)CC[C@]5(C(=O)N5CCOCC5)CC[C@@]4(C)[C@]3(C)CC[C@H]2C1(C)C)C(=O)O	94%
CCN1CCN(C(=O)[C@]23CC[C@@H](C4(C)CC4)[C@@H]2[C@H]2CC[C@@H]4[C@@]5(C)CC[C@H](OC(=O)CC(C)(C)CC(=O)O)C(C)(C)[C@@H]5CC[C@@]4(C)[C@]2(C)CC3)CC1	94%
[2H]C([2H])([2H])C(CC(=O)O[C@H]1CC[C@]2(C)[C@H]3CC[C@@H]4[C@H]5[C@H](C(=C)C)CC[C@]5(C(=O)N[C@@H]5C[C@H](C(=O)N6CCCCC6)C5(C)C)CC[C@@]4(C)[C@]3(C)CC[C@H]2C1(C)C)(C(=O)O)C([2H])([2H])[2H]	100%
CC1([C@@H]2CC[C@]3(C(=O)N4CCOCC4)CC[C@]4(C)[C@H](CC[C@@H]5[C@@]6(C)CC[C@H](OC(=O)[C@H]7C[C@@H](C(=O)O)C7(C)C)C(C)(C)[C@@H]6CC[C@]54C)[C@@H]23)CC1	98%
CCN1CCN(C(=O)[C@]23CC[C@@H](C4(C)CC4)[C@@H]2[C@H]2CC[C@@H]4[C@@]5(C)CC[C@H](OC(=O)[C@H]6C[C@@H](C(=O)O)C6(C)C)C(C)(C)[C@@H]5CC[C@@]4(C)[C@]2(C)CC3)CC1	83%

For every listed record, write down its inhibition at 0.1 µM.
1. C=C(C)[C@@H]1CC[C@]2(C(=O)N[C@@H]3C[C@H](c4nnc(C)o4)C3(C)C)CC[C@]3(C)[C@H](CC[C@@H]4[C@@]5(C)CC[C@H](OC(=O)CC(C)(C)C(=O)O)C(C)(C)[C@@H]5CC[C@]43C)[C@@H]12
2. CC1([C@@H]2CC[C@]3(C(=O)N4CCN(CCN5CCOCC5)CC4)CC[C@]4(C)[C@H](CC[C@@H]5[C@@]6(C)CC[C@H](OC(=O)[C@H]7C[C@@H](C(=O)O)C7(C)C)C(C)(C)[C@@H]6CC[C@]54C)[C@@H]23)CC1
3. [2H]C([2H])([2H])C(CC(=O)O[C@H]1CC[C@]2(C)[C@H]3CC[C@@H]4[C@H]5[C@H](C6(C)CC6)CC[C@]5(C(=O)N5CCN(CC)CC5)CC[C@@]4(C)[C@]3(C)CC[C@H]2C1(C)C)(C(=O)O)C([2H])([2H])[2H]

["100%", "99%", "97%"]

----------
assay-explanation: Cyto-toxicity assay (MTT) in MT2 cells without virus
Type: cell-based
recorded-conditions: human
Field: label. Allowed values: criterion met (viability at 1000 nM < 90%) or criterion not met (viability at 1000 nM >= 90%).

Examples from the recorded data:
molecule	answer-label
[2H]C([2H])([2H])C(N1CCN(C(=O)[C@H]2C[C@@H](NC(=O)[C@]34CC[C@@H](C(=C)C)[C@@H]3[C@H]3CC[C@@H]5[C@@]6(C)CC[C@H](OC(=O)CC(C)(C)C(=O)O)C(C)(C)[C@@H]6CC[C@@]5(C)[C@]3(C)CC4)C2(C)C)CC1)C([2H])([2H])[2H] [Example 8]	criterion not met
COCCOC1CCN(C(=O)[C@]23CC[C@@H](C4(C)CC4)[C@@H]2[C@H]2CC[C@@H]4[C@@]5(C)CC[C@H](OC(=O)CC(C)(C)C(=O)O)C(C)(C)[C@@H]5CC[C@@]4(C)[C@]2(C)CC3)CC1 [Example 41]	criterion met
C=C(C)[C@@H]1CC[C@]2(C(=O)N3CCN(CC)CC3)CC[C@]3(C)[C@H](CC[C@@H]4[C@@]5(C)CC[C@H](OC(=O)[C@H]6[C@@H](CC(=O)O)C6(C)C)C(C)(C)[C@@H]5CC[C@]43C)[C@@H]12 [Example 19]	criterion not met
CCN1CCN(C(=O)[C@]23CC[C@@H](C4(C)CC4)[C@@H]2[C@H]2CC[C@@H]4[C@@]5(C)CC[C@H](OC(=O)CC(C)(C)C(=O)O)C(C)(C)[C@@H]5CC[C@@]4(C)[C@]2(C)CC3)CC1 [Example 12]	criterion not met

Say whether its viability at 1000 nM is strictly beneath 90%. Entry: C=C(C)[C@@H]1CC[C@]2(C(=O)N[C@@H]3C[C@H](c4nnc(C)o4)C3(C)C)CC[C@]3(C)[C@H](CC[C@@H]4[C@@]5(C)CC[C@H](OC(=O)CC(C)(C)C(=O)O)C(C)(C)[C@@H]5CC[C@]43C)[C@@H]12 [Example 11]
criterion not met

hey, is viability at 1000 nM for C=C(C)[C@@H]1CC[C@]2(C(=O)N[C@@H]3C[C@H](c4nnc(CC(C)C)o4)C3(C)C)CC[C@]3(C)[C@H](CC[C@@H]4[C@@]5(C)CC[C@H](OC(=O)CC(C)(C)C(=O)O)C(C)(C)[C@@H]5CC[C@]43C)[C@@H]12 [Example 16] lower than 90% or not?
criterion met
